The values you see were collected from patent US3972872A.

tested on: Escherichia coli 266; assay: In vivo protection of mice versus Escherichia coli 266; details: Escherichia coli, 266, sc, 96 h; 50 mg./kg., mice, subcutaneous route; read-out: % Protection
Where a name gives a salt, the structure may show the parent alone.
// label = TRUE if responders at 50 mg/kg is not less than 60%, otherwise FALSE

# bool: responders at 50 mg/kg of CC1(C)S[C@@H]2[C@H](NC(=O)[C@H](NC(=O)Cc3ccc(NC(=N)N)cc3)c3ccccc3)C(=O)N2[C@H]1C(=O)O [NH--C(NH)NH2 [4th of 4], R=H] >= 60%
FALSE

# bool: responders at 50 mg/kg of CC(C)(C)C(=O)OCOC(=O)[C@@H]1N2C(=O)[C@@H](NC(=O)[C@H](NC(=O)CNC(=N)N)c3ccccc3)[C@H]2SC1(C)C [CH2 NH--C(NH)NH2, R=POM, Hydrochloride] >= 60%
TRUE

Confirm if responders at 50 mg/kg reported for the molecule CC1(C)S[C@@H]2[C@H](NC(=O)[C@H](NC(=O)c3ccc(NC(=N)N)cc3)c3ccccc3)C(=O)N2[C@H]1C(=O)O [NH--C(NH)NH2 [1st of 4], R=H] is 60% or above.
FALSE

Check if responders at 50 mg/kg >= 60% (inclusive). Item: `CC1(C)S[C@@H]2[C@H](NC(=O)[C@H](NC(=O)CCNC(=N)N)c3ccccc3)C(=O)N2[C@H]1C(=O)O`
TRUE

Identify whether the reported responders at 50 mg/kg of the following molecule is 60% or greater: CC1(C)S[C@@H]2[C@H](NC(=O)[C@H](NC(=O)C3CCC(NC(=N)N)CC3)c3ccccc3)C(=O)N2[C@H]1C(=O)O (stereo partly drawn) [NH--C(NH)NH2 [3rd of 4], R=H]
FALSE

* * *

assay: in vivo; settings: dog, im, 25 mg/kg
quantity name: concentration at 1 h (ng/mL)
Only the number, expressed in ng/mL, is required.

Give the measured concentration at 1 h of `CC1(C)S[C@@H]2[C@H](NC(=O)[C@H](NC(=O)NC(=N)N)c3ccccc3)C(=O)N2[C@H]1C(=O)O` .
3600

* * *

Examples of compounds with documented responders at 50 mg/kg follow.
test system: Escherichia coli 266; assay: In vivo protection of mice versus Escherichia coli 266; settings: Escherichia coli, 266, sc, 96 h, read-out: % Protection
Where a name gives a salt, the structure may show the parent alone.
Quick note: number first, unit second.

Please review the following examples before continuing.
compound | responders at 50 mg/kg
CC1(C)S[C@@H]2[C@H](NC(=O)[C@H](NC(=O)CN3CCNC3=N)c3ccccc3)C(=O)N2[C@H]1C(=O)O | 100%
CC1(C)S[C@@H]2[C@H](NC(=O)[C@H](NC(=O)CNC3=NCCN3)c3ccccc3)C(=O)N2[C@H]1C(=O)O | 90%
CN(CC(=O)N[C@@H](C(=O)N[C@@H]1C(=O)N2[C@@H]1SC(C)(C)[C@@H]2C(=O)O)c1ccccc1)C(=N)N | 60%

Give its responders at 50 mg/kg value. Item: `CC1(C)S[C@@H]2[C@H](NC(=O)[C@H](NC(=O)CNC(=N)N)c3ccccc3)C(=O)N2[C@H]1C(=O)O`
100%

What value of responders at 50 mg/kg has been reported for the following compound? `CNC(=N)NCC(=O)N[C@@H](C(=O)N[C@@H]1C(=O)N2[C@@H]1SC(C)(C)[C@@H]2C(=O)O)c1ccccc1`
100%

// returns reported responders at 50 mg/kg for input CN(CC(=O)N[C@@H](C(=O)N[C@@H]1C(=O)N2[C@@H]1SC(C)(C)[C@@H]2C(=O)OCOC(=O)C(C)(C)C)c1ccccc1)C(=N)N [CH2 N(CH3)--C(NH)NH2, R=POM, Hydrochloride]
70%

* * *

test: Urine levels and urinary recovery in dogs, single intramuscular dose; settings: dog, urine, im, 25 mg/kg
quantity name: concentration at 2 h (µg/mL)
Supply the numeric figure in µg/mL, leaving out any unit text.

Entry `CC1(C)S[C@@H]2[C@H](NC(=O)[C@H](NC(=O)CNC(=N)N)c3ccccc3)C(=O)N2[C@H]1C(=O)O` has what concentration at 2 h?
1020
